Molecular target: IRAK4 (Homo sapiens, UniProt Q9NWZ3)
Construct: endogenous in cells; host or cells: OCI-LY10
Sequence (Q9NWZ3 1-460): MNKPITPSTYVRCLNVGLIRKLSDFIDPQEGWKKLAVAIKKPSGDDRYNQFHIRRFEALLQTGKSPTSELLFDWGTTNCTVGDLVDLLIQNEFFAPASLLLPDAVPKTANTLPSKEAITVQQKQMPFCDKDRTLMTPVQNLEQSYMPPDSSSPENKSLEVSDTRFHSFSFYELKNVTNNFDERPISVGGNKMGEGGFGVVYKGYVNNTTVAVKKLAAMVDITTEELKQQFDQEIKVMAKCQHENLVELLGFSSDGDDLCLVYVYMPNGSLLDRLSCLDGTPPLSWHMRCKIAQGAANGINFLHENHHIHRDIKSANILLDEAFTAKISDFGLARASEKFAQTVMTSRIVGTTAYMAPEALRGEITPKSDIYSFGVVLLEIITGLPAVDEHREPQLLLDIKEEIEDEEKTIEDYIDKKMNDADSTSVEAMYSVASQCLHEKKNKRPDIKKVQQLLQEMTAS
Assay: IRAK4 degradation in OCI-LY10 (MSD)
Assay type: cell-based
Conditions: OCI-LY10 cells, 4 hrs incubation; read-out: IRAK4 MSD degradation in OCI-LY10 at 4 hrs: Average external-Abs DC50
In this section we review reported DC50 values for a set of compounds.

Solved entries:
CN(CCCCCCOc1ccc(Oc2ccc(N(Cc3ccccc3)C(=O)CCl)cc2)cc1)C[C@H]1CC[C@H](n2cc(NC(=O)c3coc(-c4ccnc(NCC5CC5)c4)n3)c(C(F)F)n2)CC1: > 1000 nM
CN(CCCCCCCNC(=O)COc1ccc2c(c1)CCCN2C(=O)CCl)C[C@H]1CC[C@H](n2cc(NC(=O)c3coc(-c4ccnc(NCC5CC5)c4)n3)c(C(F)F)n2)CC1: > 1000 nM

Query compound follows.
Any idea what its DC50 is? The compound is CN(CCCNC(=O)COc1ccc2c(c1)CCCN2C(=O)CCl)C[C@H]1CC[C@H](n2cc(NC(=O)c3coc(-c4ccnc(NCC5CC5)c4)n3)c(C(F)F)n2)CC1
> 1000 nM
